assay: Solubility screening of veldoreotide acetate (10 mg, incremental volumes of medium, USP definition); type: physicochemical; conditions: Lactic acid 37 mM, Mannitol 250 mM, pH 4.3, 10 mg in Lactic acid 37 mM, Mannitol 250 mM (pH 4.3); read-out: 1 ml Sparingly soluble (0.01 g/ml; 10 mg/ml)
Reported Metric: solubility

// query solubility value for entry C[C@@H](O)[C@@H]1NC(=O)[C@H](CCCCN)NC(=O)[C@@H](Cc2c[nH]c3ccccc23)NC(=O)[C@H](Cc2c[nH]c3ccccc23)NC(=O)[C@H](Cc2ccccc2)NC(=O)CCCNC(=O)CCCN(CC(N)=O)C(=O)[C@H](Cc2ccccc2)NC1=O [Veldoreotide Acetate]
> 10000 µg/mL

###

experiment: in vivo; design: species or system rats; details: Sprague-Dawley, rat, sc, 3 mg/kg, Rats Cmax (ng/ml)
Reported Metric: Cmax (ng/mL)
Please reply with the bare figure in ng/mL and do not write the unit itself.

I'd like to know its Cmax. The compound in question is C[C@@H](O)[C@@H]1NC(=O)[C@H](CCCCN)NC(=O)[C@@H](Cc2c[nH]c3ccccc23)NC(=O)[C@H](Cc2c[nH]c3ccccc23)NC(=O)[C@H](Cc2ccccc2)NC(=O)CCCNC(=O)CCCN(CC(N)=O)C(=O)[C@H](Cc2ccccc2)NC1=O [Veldoreotide Acetate]
544

###

experiment: Solubility screening of veldoreotide acetate (10 mg, incremental volumes of medium, USP definition); type: physicochemical; conditions: oleic acid, 10 mg in Oleic acid; read-out: 1 ml Sparingly soluble (0.01 g/ml; 10 mg/ml)
Reported Metric: solubility

What value of measured solubility is listed for C[C@@H](O)[C@@H]1NC(=O)[C@H](CCCCN)NC(=O)[C@@H](Cc2c[nH]c3ccccc23)NC(=O)[C@H](Cc2c[nH]c3ccccc23)NC(=O)[C@H](Cc2ccccc2)NC(=O)CCCNC(=O)CCCN(CC(N)=O)C(=O)[C@H](Cc2ccccc2)NC1=O [Veldoreotide Acetate] ?
< 10000 µg/mL

###

assay: Solubility screening of veldoreotide acetate (10 mg, incremental volumes of medium, USP definition); type: physicochemical; conditions: oleic acid, 10 mg in Oleic acid; read-out: 0.5 ml Soluble (0.02 g/ml; 20 mg/ml)
Reported Metric: solubility

solubility for C[C@@H](O)[C@@H]1NC(=O)[C@H](CCCCN)NC(=O)[C@@H](Cc2c[nH]c3ccccc23)NC(=O)[C@H](Cc2c[nH]c3ccccc23)NC(=O)[C@H](Cc2ccccc2)NC(=O)CCCNC(=O)CCCN(CC(N)=O)C(=O)[C@H](Cc2ccccc2)NC1=O [Veldoreotide Acetate] ?
< 20 mg/mL

###

assay: Solubility screening of veldoreotide acetate (10 mg, incremental volumes of medium, USP definition); format: physicochemical; details: Acetate saline 100 mM, Mannitol 250 mM, pH 4.3, 10 mg in Acetate saline 100 mM, Mannitol 250 mM (pH 4.3); read-out: 0.5 ml Soluble (0.02 g/ml; 20 mg/ml)
Reported Metric: solubility

solubility for C[C@@H](O)[C@@H]1NC(=O)[C@H](CCCCN)NC(=O)[C@@H](Cc2c[nH]c3ccccc23)NC(=O)[C@H](Cc2c[nH]c3ccccc23)NC(=O)[C@H](Cc2ccccc2)NC(=O)CCCNC(=O)CCCN(CC(N)=O)C(=O)[C@H](Cc2ccccc2)NC1=O [Veldoreotide Acetate] ?
< 20 mg/mL

###

assay: Pharmacokinetics of IR formulations in minipigs; assay type: in vivo; conditions: minipig, plasma, sc, 0.1 mg/kg, minipigs, IR, SC 0.1 mg/Kg; Lactic acid buffer
Reported Metric: AUC(0-t) (ng·h/mL)
// return numeric value only (unit: ng·h/mL, not printed)

Quick one: AUC(0-t) of C[C@@H](O)[C@@H]1NC(=O)[C@H](CCCCN)NC(=O)[C@@H](Cc2c[nH]c3ccccc23)NC(=O)[C@H](Cc2c[nH]c3ccccc23)NC(=O)[C@H](Cc2ccccc2)NC(=O)CCCNC(=O)CCCN(CC(N)=O)C(=O)[C@H](Cc2ccccc2)NC1=O [Veldoreotide Acetate] ?
26

###

assay: Pharmacokinetics of IR formulations in minipigs; format: in vivo; conditions: minipig, plasma, sc, 0.4 mg/kg, minipigs, IR, SC 0.4 mg/Kg; DEX:PEP 5:1 saline
Reported Metric: Tmax (min)
Give just the number in min; leave the unit off.

Please look up its Tmax: C[C@@H](O)[C@@H]1NC(=O)[C@H](CCCCN)NC(=O)[C@@H](Cc2c[nH]c3ccccc23)NC(=O)[C@H](Cc2c[nH]c3ccccc23)NC(=O)[C@H](Cc2ccccc2)NC(=O)CCCNC(=O)CCCN(CC(N)=O)C(=O)[C@H](Cc2ccccc2)NC1=O [Veldoreotide Acetate]
30

###

assay: Solubility screening of veldoreotide acetate (10 mg, incremental volumes of medium, USP definition); assay type: physicochemical; details: Acetone (USP), 10 mg in Acetone (USP); read-out: 0.5 ml Soluble (0.02 g/ml; 20 mg/ml)
Reported Metric: solubility

Looking for the measured solubility of C[C@@H](O)[C@@H]1NC(=O)[C@H](CCCCN)NC(=O)[C@@H](Cc2c[nH]c3ccccc23)NC(=O)[C@H](Cc2c[nH]c3ccccc23)NC(=O)[C@H](Cc2ccccc2)NC(=O)CCCNC(=O)CCCN(CC(N)=O)C(=O)[C@H](Cc2ccccc2)NC1=O [Veldoreotide Acetate] , can you help?
> 20 mg/mL

###

experiment: Solubility screening of veldoreotide acetate (10 mg, incremental volumes of medium, USP definition); assay type: physicochemical; conditions: Dextrose 5% (USP), 0.1 ml Freely soluble (0.1 g/ml), 10 mg in Dextrose 5% (USP)
Reported Metric: solubility

Item C[C@@H](O)[C@@H]1NC(=O)[C@H](CCCCN)NC(=O)[C@@H](Cc2c[nH]c3ccccc23)NC(=O)[C@H](Cc2c[nH]c3ccccc23)NC(=O)[C@H](Cc2ccccc2)NC(=O)CCCNC(=O)CCCN(CC(N)=O)C(=O)[C@H](Cc2ccccc2)NC1=O [Veldoreotide Acetate] has what recorded solubility?
> 100 mg/mL

###

test: Solubility screening of veldoreotide acetate (10 mg, incremental volumes of medium, USP definition); assay type: physicochemical; settings: Acetate saline 100 mM, Mannitol 250 mM, pH 4.3, 10 mg in Acetate saline 100 mM, Mannitol 250 mM (pH 4.3); read-out: 1 ml Sparingly soluble (0.01 g/ml; 10 mg/ml)
Reported Metric: solubility

Would you mind telling me what solubility value was observed for C[C@@H](O)[C@@H]1NC(=O)[C@H](CCCCN)NC(=O)[C@@H](Cc2c[nH]c3ccccc23)NC(=O)[C@H](Cc2c[nH]c3ccccc23)NC(=O)[C@H](Cc2ccccc2)NC(=O)CCCNC(=O)CCCN(CC(N)=O)C(=O)[C@H](Cc2ccccc2)NC1=O [Veldoreotide Acetate] ?
< 10000 µg/mL

###

experiment: Pharmacokinetics of IR formulations in minipigs; format: in vivo; settings: minipig, plasma, sc, 0.1 mg/kg, pH 4, IR; Lactic acid buffer pH 4
Reported Metric: Cmax
# output: numeric value plus its unit

Consider the molecule C[C@@H](O)[C@@H]1NC(=O)[C@H](CCCCN)NC(=O)[C@@H](Cc2c[nH]c3ccccc23)NC(=O)[C@H](Cc2c[nH]c3ccccc23)NC(=O)[C@H](Cc2ccccc2)NC(=O)CCCNC(=O)CCCN(CC(N)=O)C(=O)[C@H](Cc2ccccc2)NC1=O [Veldoreotide Acetate] and give its measured Cmax.
29 ng/mL

###

assay: Solubility screening of veldoreotide acetate (10 mg, incremental volumes of medium, USP definition); type: physicochemical; conditions: Lactic acid 37 mM, Mannitol 250 mM, pH 4.3, 10 mg in Lactic acid 37 mM, Mannitol 250 mM (pH 4.3); read-out: 0.5 ml Soluble (0.02 g/ml; 20 mg/ml)
Reported Metric: solubility

Sample C[C@@H](O)[C@@H]1NC(=O)[C@H](CCCCN)NC(=O)[C@@H](Cc2c[nH]c3ccccc23)NC(=O)[C@H](Cc2c[nH]c3ccccc23)NC(=O)[C@H](Cc2ccccc2)NC(=O)CCCNC(=O)CCCN(CC(N)=O)C(=O)[C@H](Cc2ccccc2)NC1=O [Veldoreotide Acetate] — what was its solubility?
> 20 mg/mL

###

test: Solubility of COR005 acetate in aqueous media with additives at 25° C.; format: physicochemical; conditions: isotonic PBS pH 7.4, pH 7.4, PBS pH 7.4 Isotonic; HPB:PEP 10:1; read-out: Solubility of COR005 Acetate (mg/ml) at 25° C.
Reported Metric: solubility (mg/mL)
Numbers only; they are read as mg/mL.

Consider the molecule C[C@@H](O)[C@@H]1NC(=O)[C@H](CCCCN)NC(=O)[C@@H](Cc2c[nH]c3ccccc23)NC(=O)[C@H](Cc2c[nH]c3ccccc23)NC(=O)[C@H](Cc2ccccc2)NC(=O)CCCNC(=O)CCCN(CC(N)=O)C(=O)[C@H](Cc2ccccc2)NC1=O [Veldoreotide Acetate] and give its measured solubility.
10
